biological target: MMP-13CD (catalytic domain of collagenase 3) (Homo sapiens, UniProt P45452); experiment: biochemical
Consider the following compounds; for each one, report its IC50.
Numbers only, in nM.

Items follow; give IC50 for each.
1. O=C(NCc1ccc2c(c1)OCO2)c1ccc2[nH]c(=S)n(Cc3ccccc3)c(=O)c2c1
2. Cn1c(=O)n(Cc2ccccc2)c(=O)c2cc(C(=O)NCc3ccncc3)ccc21
3. Cn1c(=O)n(Cc2ccccc2)c(=O)c2cc(C(=O)NCc3ccccc3)ccc21
4. Cn1c(=O)n(Cc2ccccc2)c(=O)c2cc(C(=O)NCc3ccc4c(c3)OCO4)ncc21 [Synthesis Example 53]
5. O=C(NCc1ccc(Cl)cc1)c1ccc2[nH]c(=O)n(Cc3ccccc3)c(=O)c2c1

1. 14
2. 51
3. 57
4. 1
5. 167

* * *

target: MMP-1FL (full-length interstitial collagenase) (Homo sapiens, UniProt P03956); test: Thiopeptolide hydrolysis assay, MMP-1; assay type: biochemical; conditions: Table II; read-out: MMP01 IC50
Sequence (P03956 100-469): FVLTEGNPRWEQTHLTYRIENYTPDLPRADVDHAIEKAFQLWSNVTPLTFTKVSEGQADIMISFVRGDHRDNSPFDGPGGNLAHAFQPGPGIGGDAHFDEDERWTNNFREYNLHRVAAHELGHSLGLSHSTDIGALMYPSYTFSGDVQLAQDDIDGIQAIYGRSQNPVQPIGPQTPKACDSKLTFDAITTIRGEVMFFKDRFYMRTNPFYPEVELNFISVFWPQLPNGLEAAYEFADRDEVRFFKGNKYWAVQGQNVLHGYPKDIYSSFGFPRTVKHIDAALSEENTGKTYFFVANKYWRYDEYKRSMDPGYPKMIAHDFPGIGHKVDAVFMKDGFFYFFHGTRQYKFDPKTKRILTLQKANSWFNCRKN
reported-endpoint: IC50

# sample-smiles, reported-endpoint, value-observed
rows = [
    ("COc1cccc(CNC(=O)c2cccc(C(=O)OCc3ccc(C(=O)O)cc3)c2)c1", "IC50", "> 100 µM"),
    ("COc1cccc(CNC(=O)c2cccc(C(=O)NCc3cccnc3)c2)c1", "IC50", "> 100 µM"),
    ("COc1ccc(CNC(=O)c2cccc(C(=O)NCc3ccc(OC)cc3)c2)cc1", "IC50", "> 100 µM"),
    ("COc1cccc(CNC(=O)c2ccc(OC)c(C(=O)NCc3cccc(OC)c3)c2)c1", "IC50", "> 100 µM"),
    ("COc1cccc(CNC(=O)c2cccc(C(=O)NCc3ccc(Cl)cc3)c2)c1", "IC50", "> 100 µM"),
]

Quick batch: IC50 for everything below.
1. O=C(O)CN(Cc1ccccc1)C(=O)c1cccc(C(=O)NCc2ccc3c(c2)OCO3)c1
2. COc1cccc(CNC(=O)c2cccc(C(=O)NCc3ccc(C(=O)O)cc3)c2)c1
3. CC(C)Oc1ccc(C(=O)NCc2ccc3c(c2)OCO3)cc1C(=O)NCc1ccc2c(c1)OCO2
4. COc1cccc(CNC(=O)c2cccc(C(=O)NCc3cccc(OC)c3)c2)c1

["> 100 µM", "> 100 µM", "71 µM", "> 100 µM"]

Parameter requested: IC50. Apply to each item below.
1. Nc1cc(C(=O)OCc2ccccc2)cc(C(=O)OCc2ccccc2)c1
2. COc1ccc(C(=O)OCc2ccncc2)cc1C(=O)OCc1ccncc1
3. COc1ccc(C(=O)OCc2ccc3nsnc3c2)cc1C(=O)OCc1ccc2nsnc2c1

1: > 100 µM; 2: > 100 µM; 3: 30 µM

* * *

Provide the reported log10 of IC50 of each item.
biological target: MMP-13CD (catalytic domain of collagenase 3) (Homo sapiens, UniProt P45452); experiment: Thiopeptolide hydrolysis assay, MMP-13; conditions: IC50 μM, Table V; MMP-13;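 further: inhibition of enzymatic thiopeptolide substrate cleavage (100 µM) in pH 6.0 MES buffer with CaCl2 and DTNB, comparing hydrolysis with versus without inhibitor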
Short version: log10 scale, IC50, µM.

Please review the following examples before continuing.
# compound, value-observed
records = [
    ("O=C(NCc1ccncc1)c1ccc2c(c1)c(=O)n(Cc1ccccc1)c1nccn21", 0.32),
    ("N#Cc1ccc(Cn2c(=O)c3cc(C(=O)NCc4ccc5c(c4)OCO5)ccc3n3cnnc23)cc1 [Synthesis Example 58]", -2.64),
    ("COC(=O)c1ccc(Cn2c(=O)c3cc(C(=O)NCc4ccc5c(c4)OCO5)ccc3n3cnnc23)cc1", -2.96),
    ("O=C(O)c1ccc(Cn2c(=O)c3cc(C(=O)NCc4ccncc4)ccc3n3cnnc23)cc1", -2.38),
]

Quick one: give me log10 of IC50 for each item below, same order please.
1. O=C(O)c1ccc(Cn2c(=O)c3cc(C(=O)NCc4ccc5c(c4)OCO5)ccc3n3cnnc23)cc1 [Synthesis Example 61]
2. COC(=O)c1ccc(Cn2c(=O)c3cc(C(=O)NCc4ccncc4)ccc3n3cnnc23)cc1
3. COC(=O)c1ccc(Cn2c(=O)c3cc(C(=O)NCc4ccc(OC)cc4)ccc3n3cnnc23)cc1 [Synthesis Example 59]
4. O=C(NCc1ccc2c(c1)OCO2)c1ccc2c(c1)c(=O)n(Cc1ccccc1)c1nncn21 [Synthesis Example 57]

1: -3.05; 2: -1.92; 3: -2.59; 4: -2.40

Working through the 8 compounds below one at a time, give log10 of IC50 for each.
1. O=C(NCc1ccc2c(c1)OCO2)c1ccc2c(c1)c(=O)n(Cc1ccccc1)c1nccn21
2. COc1ccc(CNC(=O)c2ccc3c(c2)c(=O)n(Cc2ccc(C(=O)N(C)C)cc2)c2nncn32)cc1
3. O=C(OCc1ccncc1)c1ccc2c(c1)c(=O)n(Cc1ccccc1)c1nncn21 [Synthesis Example 56]
4. N#Cc1ccc(Cn2c(=O)c3cc(C(=O)NCc4ccncc4)ccc3n3cnnc23)cc1
5. O=C(NCCCSc1ccncc1)c1ccc2c(c1)c(=O)n(Cc1ccccc1)c1nncn21
6. COC(=O)Cc1ccc(Cn2c(=O)c3cc(C(=O)NCc4ccc(OC)cc4)ccc3n3cnnc23)cc1
7. O=C(OCc1ccccc1)c1ccc2c(c1)c(=O)n(Cc1ccccc1)c1nncn21 [Synthesis Example 55]
8. O=C(O)Cc1ccc(Cn2c(=O)c3cc(C(=O)NCc4ccncc4)ccc3n3cnnc23)cc1

[-0.78, -2.06, -2.64, -1.68, -0.73, -2.54, -2.47, -2.21]

Consider the following items and state reported log10 of IC50 for each.
1. COc1ccc(CNC(=O)c2ccc3c(c2)c(=O)n(CCOc2ccc(Cl)cc2)c2nncn32)cc1
2. O=C(NCc1ccncc1)c1ccc2c(c1)c(=O)n(Cc1ccccc1)c1nncn21

[-1.06, -1.40]
